Values of Ki reported for rat mGlu2 receptor (Rattus norvegicus, UniProt P31421) appear below.
Answer with a number only, understood to be in nM.

Worked cases, Ki given:
- Compound Structure String: "CC(C)(C)NS(=O)(=O)c1ccc(-c2cccc(C3=Nc4ccc(C(F)(F)F)cc4NC(=O)C3)c2)cc1"
  Ki [nM]: 16
- Compound Structure String: "CN(C)c1cc2c(cc1C(F)(F)F)NC(=O)CC(c1cccc(-c3ccc(S(N)(=O)=O)cc3)c1)=N2"
  Ki [nM]: 3.1
- Compound Structure String: "NS(=O)(=O)c1cccc(-c2cccc(C3=Nc4ccc(C(F)(F)F)cc4NC(=O)C3)c2)c1"
  Ki [nM]: 1.7

Could you now consider this next molecule?
Measured Ki (rat mGlu2 receptor (Rattus norvegicus, UniProt P31421)), entry NS(=O)(=O)c1ccc(-c2cccc(C3=Nc4ccc(C(F)(F)F)cc4NC(=O)C3)c2)cc1 : 3
